Data origin: patent US20230257372A1

# study.system: human recombinant HDAC6 (Homo sapiens)
# Construct: purchased Calbiochem Inc. 382180
# Sequence (Q9UBN7 1-1215): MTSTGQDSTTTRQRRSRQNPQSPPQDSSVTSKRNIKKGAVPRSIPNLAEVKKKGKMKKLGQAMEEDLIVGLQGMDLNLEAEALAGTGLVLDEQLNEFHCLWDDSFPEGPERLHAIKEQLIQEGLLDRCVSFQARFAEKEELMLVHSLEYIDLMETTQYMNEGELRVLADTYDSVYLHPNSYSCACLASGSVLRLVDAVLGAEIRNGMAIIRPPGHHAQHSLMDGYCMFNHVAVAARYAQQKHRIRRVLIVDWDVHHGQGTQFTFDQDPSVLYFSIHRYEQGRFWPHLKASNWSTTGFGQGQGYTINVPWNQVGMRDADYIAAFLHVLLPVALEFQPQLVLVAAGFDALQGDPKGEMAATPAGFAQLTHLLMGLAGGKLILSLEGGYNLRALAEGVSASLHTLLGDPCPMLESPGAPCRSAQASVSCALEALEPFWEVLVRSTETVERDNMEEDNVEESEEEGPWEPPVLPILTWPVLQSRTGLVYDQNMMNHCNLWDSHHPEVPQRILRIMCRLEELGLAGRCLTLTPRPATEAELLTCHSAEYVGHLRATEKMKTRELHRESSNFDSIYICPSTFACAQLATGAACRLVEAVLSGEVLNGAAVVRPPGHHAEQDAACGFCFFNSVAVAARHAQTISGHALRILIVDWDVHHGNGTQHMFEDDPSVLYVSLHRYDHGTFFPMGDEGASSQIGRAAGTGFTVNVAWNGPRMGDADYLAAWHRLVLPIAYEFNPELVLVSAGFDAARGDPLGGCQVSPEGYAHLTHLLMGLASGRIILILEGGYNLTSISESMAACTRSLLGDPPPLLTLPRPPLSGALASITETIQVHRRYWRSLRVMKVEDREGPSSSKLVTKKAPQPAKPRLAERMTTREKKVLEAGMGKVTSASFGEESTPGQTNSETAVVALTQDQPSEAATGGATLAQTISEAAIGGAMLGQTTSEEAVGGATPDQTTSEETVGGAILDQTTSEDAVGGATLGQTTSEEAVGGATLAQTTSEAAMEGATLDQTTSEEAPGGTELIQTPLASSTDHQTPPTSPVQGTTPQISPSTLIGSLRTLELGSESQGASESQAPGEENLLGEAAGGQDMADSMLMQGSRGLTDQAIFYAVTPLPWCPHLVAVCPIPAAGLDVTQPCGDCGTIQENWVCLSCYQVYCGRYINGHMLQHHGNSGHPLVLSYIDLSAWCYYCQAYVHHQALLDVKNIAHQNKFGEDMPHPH
# experiment: HDAC6 enzyme activity inhibition (HDAC Fluorimetric Drug Discovery Kit)
# Assay type: biochemical
# condition.notes: human recombinant HDAC6, same protocol as HDAC1
observation.type: pIC50
Bear in mind: pIC50 is minus log10 of a mol/L concentration; give just that figure.

Worked set:
given.smiles	study.system	pIC50
Fc1cc(-c2nnc(C(F)F)o2)ccc1Cn1cc(-c2ccc(CN3CC[C@H](F)C3)nc2)nn1	human recombinant HDAC6 (Homo sapiens)	7.19
FC(F)c1nnc(-c2ccc(Cn3cc(-c4ccc(CNC5CCC5)cc4)nn3)cc2)o1	human recombinant HDAC6 (Homo sapiens)	7.62
Fc1cc(-c2nnc(C(F)F)o2)ccc1Cn1cc(-c2cccc(N3CCN(C4COC4)CC3)c2F)nn1	human recombinant HDAC6 (Homo sapiens)	7.58
Fc1cc(-c2nnc(C(F)F)o2)cnc1Cn1cc(-c2cccc(C3CCN(C4CN(C5CCC5)C4)CC3)c2)nn1	human recombinant HDAC6 (Homo sapiens)	6.93
FC(F)c1nnc(-c2ccc(Cn3cc(-c4ccc(CN5CCCC5)cc4)nn3)nc2)o1	human recombinant HDAC6 (Homo sapiens)	7.97

Record summary for CN(C)Cc1cc(-c2cn(Cc3ccc(-c4nnc(C(F)F)o4)cc3F)nn2)cs1 : reported pIC50 = 7.13

Record summary for Fc1cc(-c2nnc(C(F)F)o2)ccc1Cn1cc(-c2ccccc2CNC2COC2)nn1 : reported pIC50 = 6.79

Record summary for Fc1cc(-c2nnc(C(F)F)o2)ccc1Cn1cc(-c2ccc(Br)cn2)nn1 : reported pIC50 = 7.07
